Test system: HaCat
testDetails: Cytotoxic Profiling of Annotated Libraries Using Quantitative High-Throughput Screening (AID 1296008); further: on the % scale 0 is the no-effect control and ±100 the full control effect; nearly all actives have a fitted effect of over 60% in size
particulars: Five cell lines viability, CellTiter-Glo ATP luminescence, 48-72 h; stronger effect = lower value
Inconclusive results are not listed.
// reported max response per item
Write the value in % as a bare number.

Guide cases for max response, answers given:
> print(dat)
                                   compound  measuredattribute  unitabbrev  experimentalvalue
1                          C[C@@H](N)C(=O)O       max response           %              -6.96
2  CC(=O)Nc1ccc(OCCOCCOc2ccc(NC(C)=O)cc2)cc1       max response           %               3.25
3                   CC(=O)Nc1ccc(C(=O)O)cc1       max response           %               3.25
4                             COc1ccc(O)cc1       max response           %               -9.9
5  CC(=O)N(CC(O)CO)c1c(I)c(C(=O)NCC(O)CO)c(I)c(C(=O)NCC(O)CO)c1I (stereo unspecified)       max response           %                3.3

Value of measured max response for the entry C[C@]1(Cn2ccnn2)[C@H](C(=O)O)N2C(=O)C[C@H]2S1(=O)=O : -19.5

====

System: C33A
testDetails: Primary qHTS to identify gynecologic anti-cancer compounds using libraries of approved drugs and bioactive compounds (AID 1345084); further: on the % scale 0 is the no-effect control and ±100 the full control effect; nearly all actives have a fitted effect of over 55% in size
particulars: Gynecologic cancer cell panel viability, ATPlite luminescence, 48 h; series mostly up to 57.5 µM
Records with an inconclusive call do not appear. Active and inactive are the calls of the source. The call rests on the fitted dose curve; in most records, active means well fitted cell-killing curve with a large enough effect; inconclusive means small, poorly fitted or top-dose-only effect, or effect the other way; inactive means flat fitted curve, though single readings scatter.
measuredAttribute: activity change, negative = cytotoxicity

> print(dat)
                                   compound               experimentalvalue
1                       NC(N)=NCCN1CCCCCCC1  9.99% [at 0.462 µM] (inactive)
2  OC(CCN1CCCC1)(c1ccccc1)C1CCCCC1 (stereo not drawn)                        inactive
3  O=C(O)Cc1ccc(CCNS(=O)(=O)c2ccc(Cl)cc2)cc1                        inactive

====

testDetails: qHTS Assay for Identifying Gametocytocidal Compounds (AID 743244);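 further: on the % scale 0 is the no-effect control and ±100 the full control effect; actives lower the fluorescent signal which means gametocytes are killed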
particulars: P. falciparum 3D7 stage III-V gametocytes, alamarBlue, 72 h; stronger effect = lower value
Records with an inconclusive call do not appear.
measuredAttribute: max response (%)
Write the value in % as a bare number.

Guide cases for max response, answers given:
> print(dat)
                                   compound  experimentalvalue
1            CC(=O)N1C[C@H](O)C[C@H]1C(=O)O               11.8
2  CN1C(=O)CC(c2ccccc2)C1=O (centres undefined)              -11.3
3  CCN1CC(CCN2CCOCC2)C(c2ccccc2)(c2ccccc2)C1=O (centres undefined)               3.23
4  CCOC(=O)[C@H](CCc1ccccc1)N[C@@H](C)C(=O)N1Cc2cc(OC)c(OC)cc2C[C@H]1C(=O)O              0.618
5  C[C@]1(Cn2ccnn2)[C@H](C(=O)O)N2C(=O)C[C@H]2S1(=O)=O                9.4
6  Cn1cc(C(=O)[C@@H]2CCc3nc[nH]c3C2)c2ccccc21              -8.94
7  C[C@H]1COc2c(C3(N)CC3)c(F)cc3c(=O)c(C(=O)O)cn1c23              -1.28
8              Nc1ccc(C(=O)Oc2ccccc2)c(O)c1              -7.01

Below: the item to evaluate.
Value of measured max response for the entry CC(CSC(=O)c1ccccc1)C(=O)N1C[C@@H](Sc2ccccc2)C[C@H]1C(=O)O (some centres undefined) : 2.09
